# System: E31 (patient-derived glioblastoma stem cells of proneural subtype)
# PROTOCOL SUMMARY: phenotypic distance (Euclidean, principal components) from DMSO controls (arbitrary units); higher = stronger morphological change
# CONDITION NOTES: 3000 nM; exposure time: 72 h
Structures can show the parent of a compound that is named as a salt.
RECORDED ENDPOINT: phenotypic distance

* Cc1cc(C(C)(C)CC(C)(C)C)ccc1OCCOCC[N+](C)(C)Cc1ccccc1 [Methyl benzethonium chloride] | 10.6
* CC(C)(C)C1CCN(C(=O)n2ncc(C(O)(c3ccccc3)c3ccccc3)n2)CC1 [ML211] | 1.12
* CN(c1nccc(=O)[nH]1)C1CCN(c2nc3ccccc3n2Cc2ccc(F)cc2)CC1 [Mizolastine] | 0.652
* CCn1cc(C(=O)O)c(=O)c2cc(F)c(N3CCNCC3)nc21 [Enoxacin] | 0.714
* COc1c(N2CCNC(C)C2)c(F)cc2c(=O)c(C(=O)O)cn(C3CC3)c12 (stereo not given) [Gatifloxacin] | 0.691
* CN1C(=O)CC(c2ccccc2)C1=O (stereo not given) [Phensuximide] | 0.717

Quick one: give me phenotypic distance for each item below, same order please.
1. S=c1[nH]cnc2nc[nH]c12 [Mercaptopurine]
2. NC1CCN(c2nc3c(cc2F)c(=O)c(C(=O)O)cn3-c2ccc(F)cc2F)C1 (stereo not given) [Tosufloxacin hydrochloride]
3. COc1ccc(C(=O)CC(=O)c2ccc(C(C)(C)C)cc2)cc1 [Avobenzone]
4. CCC(C)(C)c1ccc(CC(C)CN2C[C@@H](C)O[C@@H](C)C2)cc1 (stereo not given in full) [Amorolfine hydrochloride]

Result ::
1: 0.762; 2: 0.521; 3: 0.899; 4: 2.01

* * *

Give surviving fraction for every item shown.
# System: E21 (patient-derived glioblastoma stem cells of mesenchymal subtype)
# PROTOCOL SUMMARY: surviving fraction (nuclei count normalised to DMSO); higher = more cells surviving (less toxic)
# CONDITION NOTES: 1000 nM; exposure time: 72 h
Structures can show the parent of a compound that is named as a salt.
Answers are plain numbers.

Check out these entries, answers already filled in.
* Cc1cc(C(C)(C)CC(C)(C)C)ccc1OCCOCC[N+](C)(C)Cc1ccccc1 [Methyl benzethonium chloride] | 1.11
* CCC1=C[C@@H]2CN(C1)Cc1c([nH]c3ccccc13)[C@@](C(=O)OC)(c1cc3c(cc1OC)N(C)[C@H]1[C@@](O)(C(=O)OC)[C@H](OC(C)=O)[C@]4(CC)C=CCN5CC[C@]31[C@@H]54)C2 [Vinorelbine Tartrate] | 0.169
* CCCCC(CC)CNC(=N)NC(=N)NCCCCCCNC(=N)NC(=N)NCC(CC)CCCC (stereo unspecified) [Alexidine dihydrochloride] | 0.368

Quick one: give me surviving fraction for each item below, same order please.
1. CCn1c(-c2nonc2N)nc2cnc(Oc3cccc(NC(=O)c4ccc(OCCN5CCOCC5)cc4)c3)cc21
2. CC(C)C[C@@H](C(=O)N[C@H](C(=O)OC1CCCC1)c1ccccc1)[C@H](O)C(=O)NO [Tosedostat]
3. C=C[C@H]1CN2CC[C@H]1C[C@@H]2[C@@H](O)c1ccnc2ccc(OC)cc12 [Quinidine hydrochloride monohydrate]

Result ::
0.613
0.715
0.964

* * *

# System: E28 (patient-derived glioblastoma stem cells of classical subtype)
# PROTOCOL SUMMARY: surviving fraction (nuclei count normalised to DMSO); higher = more cells surviving (less toxic)
# CONDITION NOTES: 333.3 nM; exposure time: 72 h
Where a name gives a salt, the structure may show the parent alone.
Dear colleague, classification is by surviving fraction, with ranges listed here: low interval = under 0.9, middle interval = from 0.9 up to 1, high interval = 1 and over

• Cc1cc(/C=C/c2ccc3cc(N(C)C)ccc3[n+]2C)c(C)n1-c1ccccc1 [Pyrvinium pamoate] = low interval

Query :: Where would `O=C(C1CC1)N1CC[C@@H](Cc2n[nH]c(=O)n2-c2ccc(-c3ccc4occc4c3)cc2)C1` land among the classes by reported surviving fraction?
Result :: low interval

Query :: Where would COc1cc2c(NC3CCN(C(C)C)CC3)nc(C3CCCCC3)nc2cc1OCCCN1CCCC1 [UNC0638] land among the classes by reported surviving fraction?
Result :: middle interval

Query :: Where would C[C@H]1O[C@@H](O[C@H]2[C@@H](O)C[C@H](O[C@H]3[C@@H](O)C[C@H](O[C@H]4CC[C@@]5(C)[C@H](CC[C@@H]6[C@@H]5C[C@@H](O)[C@]5(C)[C@@H](C7=CC(=O)OC7)CC[C@]65O)C4)O[C@@H]3C)O[C@@H]2C)C[C@H](O)[C@@H]1O [Digoxin] land among the classes by reported surviving fraction?
Result :: low interval

Query :: Where would CC[C@@]1(O)C(=O)OCc2c1cc1n(c2=O)Cc2cc3cc(O)ccc3nc2-1 [Hydroxy Camptothecine] land among the classes by reported surviving fraction?
Result :: low interval

Query :: Where would COc1cccc2c(NCc3ccccc3)nc(-n3c(N)nc4ccccc43)nc12 [ML240] land among the classes by reported surviving fraction?
Result :: high interval

Query :: Where would CCCCC(CC)CNC(=N)NC(=N)NCCCCCCNC(=N)NC(=N)NCC(CC)CCCC (stereo not given) [Alexidine dihydrochloride] land among the classes by reported surviving fraction?
Result :: low interval

Query :: Where would Oc1c(Cl)cc(Cl)c(Cl)c1Cc1c(O)c(Cl)cc(Cl)c1Cl [Hexachlorophene] land among the classes by reported surviving fraction?
Result :: high interval

* * *

Give phenotypic distance for every item shown.
# Tested on: E13 (patient-derived glioblastoma stem cells of classical subtype)
# PROTOCOL SUMMARY: phenotypic distance (Euclidean, principal components) from DMSO controls (arbitrary units); higher = stronger morphological change
# CONDITION NOTES: 333.3 nM; exposure time: 72 h
One number for each entry.

Check out these entries, answers already filled in.
* COc1cc(NS(C)(=O)=O)ccc1Nc1c2ccccc2nc2ccccc12 | 6.57
* CCCCCC[C@H]1C(=O)O[C@H](C)[C@H](NC(=O)c2cccc(NC=O)c2O)C(=O)O[C@@H](C)[C@@H]1OC(=O)CC(C)C [Antimycin A] | 2.6
* COc1cc2c(NC3CCN(C(C)C)CC3)nc(C3CCCCC3)nc2cc1OCCCN1CCCC1 | 0.476

Quick one: give me phenotypic distance for each item below, same order please.
1. CC(=O)OC[C@H]1O[C@@H]([S-])[C@H](OC(C)=O)[C@@H](OC(C)=O)[C@@H]1OC(C)=O.CCP(CC)CC.[Au+]
2. Cc1cc(C)c(CN2CCc3c(Cl)cc(-c4c(C)noc4C)c(Cl)c3C2=O)c(=O)[nH]1
3. C[C@H](Cc1cc2c(c(C(N)=O)c1)N(CCCO)CC2)NCCOc1ccccc1OCC(F)(F)F

Result ::
1: 0.569; 2: 0.546; 3: 0.915

* * *

# Tested on: E57 (patient-derived glioblastoma stem cells of mesenchymal subtype)
# PROTOCOL SUMMARY: surviving fraction (nuclei count normalised to DMSO); higher = more cells surviving (less toxic)
# CONDITION NOTES: 37 nM; exposure time: 72 h
Counter-ions that a name gives are not always drawn.
RECORDED ENDPOINT: surviving fraction
Answers are plain numbers.

Check out these entries, answers already filled in.
- O=C(/C=C\n1cnc(-c2cc(C(F)(F)F)cc(C(F)(F)F)c2)n1)NNc1cnccn1 [Selinexor]: 0.43
- CC(C)(Oc1ccc(C2CC2(Cl)Cl)cc1)C(=O)O (stereo unspecified) [Ciprofibrate]: 0.934
- CC(NCCC(c1ccccc1)c1ccccc1)c1ccccc1 (stereo unspecified) [Fendiline hydrochloride]: 1.01
- CN1[C@@H]2CC[C@H]1CC(OC(=O)c1c[nH]c3ccccc13)C2 (stereo partly specified) [3-Tropanyl-indole-3-carboxylate hydrochloride]: 1.02
- O=C1CCc2cc(OCCCCc3nnnn3C3CCCCC3)ccc2N1 [Cilostazol]: 0.975
- COc1cccc2c1C(=O)c1c(O)c3c(c(O)c1C2=O)C[C@@](O)(C(=O)CO)C[C@@H]3O[C@H]1C[C@H](N)[C@H](O[C@@H]2CCCCO2)[C@H](C)O1 [Pirarubicin]: 0.176

Quick one: give me surviving fraction for each item below, same order please.
1. C[C@H]1O[C@@H](O[C@H]2[C@@H](O)C[C@H](O[C@H]3[C@@H](O)C[C@H](O[C@H]4CC[C@@]5(C)[C@H](CC[C@@H]6[C@@H]5C[C@@H](O)[C@]5(C)[C@@H](C7=CC(=O)OC7)CC[C@]65O)C4)O[C@@H]3C)O[C@@H]2C)C[C@H](O)[C@@H]1O [Digoxin]
2. Clc1ccc(CSC(Cn2ccnc2)c2ccc(Cl)cc2Cl)cc1 (stereo unspecified) [Sulconazole nitrate]
3. COc1cc2c(cc1-c1c(C)noc1C)ncc1[nH]c(=O)n([C@H](C)c3ccccn3)c12
4. CCCCCCC[N+](CC)(CC)CCCCc1ccc(Cl)cc1 [Clofilium tosylate]
5. CC(C)C[C@@H](C(=O)N[C@H](C(=O)OC1CCCC1)c1ccccc1)[C@H](O)C(=O)NO [Tosedostat]

Result ::
[0.392, 0.995, 1.14, 1.14, 0.744]

Quick one: give me surviving fraction for each item below, same order please.
1. CNCCCC12CCC(c3ccccc31)c1ccccc12 [Maprotiline hydrochloride]
2. Cc1cccn2c(=O)c(-c3nnn[nH]3)cnc12 [Pemirolast potassium]
3. CC[N+](CC)(CC)CCOc1ccc(/C=C/c2ccccc2)cc1 [MG 624]
4. CC(C)C[C@H]1C(=O)N2CCC[C@H]2[C@]2(O)O[C@](NC(=O)[C@@H]3C=C4c5cccc6[nH]c(Br)c(c56)C[C@H]4N(C)C3)(C(C)C)C(=O)N12 [Bromocryptine mesylate]
5. Cc1ccc2c(c1)C1(CCN(CCc3nc(-c4ccccc4)oc3C)CC1)OC(=O)N2

Result ::
[1.09, 0.959, 1.06, 0.893, 0.923]

Every entry's value here was drawn from the supplement of paper PMC13207355.
